// provenance: patent US20220144812A1

Field: pIC50. Provide a value for each of the compounds that follow.
tested on: H3K18Ac in HB-CLS-2 cells; assay: H3K18AC in-cell western (ICW) assay; assay type: cell-based; conditions: H3K18Ac in-cell western, HB-CLS-2 cells; read-out: CREBBP ICW IC50
One number for each entry, as −log10 of the molar value.

Here is how some compounds turned out for pIC50.
CCn1ncc(CN(C)C(=O)c2nc(-c3cc(C)cc(NC4CCNC4)c3)cc3ccc(Cl)cc23)c1C (stereo not shown) = 6.72
CCn1ncc(CN(C)C(=O)c2cc(N3CCN(C(C)=O)CC3)nc3ccc(Cl)cc23)c1C = 4.70
CCn1ncc(CN(C)C(=O)c2nc(N3CCn4cc(C)nc4C3)nc3ccc(Cl)cc23)c1C = 4.70

Now take the following compound into account.
Provide pIC50, recorded with H3K18Ac in HB-CLS-2 cells, of CCc1ccc(-c2nc(C(=O)N(C)Cc3cnn(CC)c3C)c3cc(Cl)ccc3n2)cc1
4.74
